test.settings: 25.0 °C
measured.metric: log10 OH rate constant (cm³/molecule/s)

molecule="CCC1CO1 (stereo not given)" measured_metric="log10 OH rate constant (cm³/molecule/s)" quantitative_readout=-11.7
molecule=COC(C)(C)C measured_metric="log10 OH rate constant (cm³/molecule/s)" quantitative_readout=-11.5
molecule=Cl/C=C\CCl measured_metric="log10 OH rate constant (cm³/molecule/s)" quantitative_readout=-11
molecule=FC(F)OC(F)(F)F measured_metric="log10 OH rate constant (cm³/molecule/s)" quantitative_readout=-14.5
molecule=CCCCCOC(C)=O measured_metric="log10 OH rate constant (cm³/molecule/s)" quantitative_readout=-11.1
molecule=CCCCCCO measured_metric="log10 OH rate constant (cm³/molecule/s)" quantitative_readout=-10.9
molecule=C/C=C/C(C)C measured_metric="log10 OH rate constant (cm³/molecule/s)" quantitative_readout=-10.2
molecule=Nc1ccccc1 measured_metric="log10 OH rate constant (cm³/molecule/s)" quantitative_readout=-9.95
molecule=CCCCOC(C)=O measured_metric="log10 OH rate constant (cm³/molecule/s)" quantitative_readout=-11.3
molecule="FC(Cl)C(F)(F)F (stereo not given)" measured_metric="log10 OH rate constant (cm³/molecule/s)" quantitative_readout=-14
molecule=C=CC/C=C/C measured_metric="log10 OH rate constant (cm³/molecule/s)" quantitative_readout=-10
molecule=Cc1ccc(O)c(C)c1 measured_metric="log10 OH rate constant (cm³/molecule/s)" quantitative_readout=-10.1
molecule=CCCOCCO measured_metric="log10 OH rate constant (cm³/molecule/s)" quantitative_readout=-10.7
molecule=C=O measured_metric="log10 OH rate constant (cm³/molecule/s)" quantitative_readout=-11
molecule=Cc1ccc(C)c(O)c1 measured_metric="log10 OH rate constant (cm³/molecule/s)" quantitative_readout=-10.1
molecule=Clc1ccc(Cl)c(Cl)c1 measured_metric="log10 OH rate constant (cm³/molecule/s)" quantitative_readout=-12.3
molecule=Cc1cccc(O)c1C measured_metric="log10 OH rate constant (cm³/molecule/s)" quantitative_readout=-10.1
molecule=C=CCC measured_metric="log10 OH rate constant (cm³/molecule/s)" quantitative_readout=-10.5
molecule=CCc1ccccc1 measured_metric="log10 OH rate constant (cm³/molecule/s)" quantitative_readout=-11.1
molecule=Cl/C=C\Cl measured_metric="log10 OH rate constant (cm³/molecule/s)" quantitative_readout=-11.6
